# Test system: EKO-35 araC::emrKY Pore
Threshold check on MIC: strictly below 2 µg/mL is Criterion met; on or above 2 µg/mL is Criterion not met.

compound_string=CN(C)c1ccc(O)c2c1C[C@H]1C[C@H]3[C@H](N(C)C)C(O)=C(C(N)=O)C(=O)[C@@]3(O)C(O)=C1C2=O classification="Criterion met"
compound_string=CC[C@H]1OC(=O)[C@H](C)[C@@H](O[C@H]2C[C@@](C)(OC)[C@@H](O)[C@H](C)O2)[C@H](C)[C@@H](O[C@@H]2O[C@H](C)C[C@H](N(C)C)[C@H]2O)[C@](C)(O)C[C@@H](C)C(=O)[C@H](C)[C@@H](O)[C@]1(C)O classification="Criterion met"
compound_string=CC(=O)NC[C@H]1CN(c2ccc(N3CCOCC3)c(F)c2)C(=O)O1 classification="Criterion not met"
compound_string=[H]/N=C(\N/C(=N/[H])NCCCCCCNC(=N)NC(=N)Nc1ccc(Cl)cc1)Nc1ccc(Cl)cc1 classification="Criterion met"
compound_string=CC(=O)O[C@H]1C[C@@]2(C)[C@@H](C[C@@H](O)[C@H]3[C@@]4(C)CC[C@@H](O)[C@@H](C)[C@@H]4CC[C@@]32C)/C1=C(\CCC=C(C)C)C(=O)O classification="Criterion met"
compound_string=CO[C@H]1/C=C/O[C@@]2(C)Oc3c(C)c(O)c4c(O)c(c(/C=N/N5CCN(C)CC5)c(O)c4c3C2=O)NC(=O)/C(C)=C\C=C\[C@H](C)[C@H](O)[C@@H](C)[C@@H](O)[C@@H](C)[C@H](OC(C)=O)[C@@H]1C classification="Criterion met"
compound_string=COc1ccc(C[C@H](N)C(=O)N[C@H]2[C@@H](O)[C@H](n3cnc4c(N(C)C)ncnc43)O[C@@H]2CO)cc1 classification="Criterion met"
compound_string=O=C(N[C@H](CO)[C@H](O)c1ccc([N+](=O)[O-])cc1)C(Cl)Cl classification="Criterion met"
compound_string=NC[C@H]1O[C@H](O[C@H]2[C@H](O)[C@@H](O[C@H]3O[C@H](CO)[C@@H](O)[C@H](N)[C@H]3O)[C@H](N)C[C@@H]2N)[C@H](O)[C@@H](O)[C@@H]1O classification="Criterion met"
compound_string=[H]/N=C(/N)N[C@H]1[C@H](O)[C@@H](O)[C@H](O[C@@H]2O[C@@H](C)[C@](O)(C=O)[C@H]2O[C@@H]2O[C@@H](CO)[C@H](O)[C@@H](O)[C@@H]2NC)[C@@H](N/C(N)=N\[H])[C@@H]1O classification="Criterion not met"
compound_string=CCn1cc(C(=O)O)c(=O)c2cc(F)c(N3CCNCC3)cc21 classification="Criterion met"

* * *

# System: ΔtolC-Pore
# method-description: microbe, parasite or virus in culture
# Type: cell-based, Escherichia coli
# condition-parameters: Escherichia coli, 18 h, read-out: Minimum inhibitory concentration, ΔtolC-Pore
Threshold check on MIC: strictly below 0.4 µg/mL is fulfilled; on or above 0.4 µg/mL is not fulfilled.

compound_string=COc1cccc2c1C(=O)c1c(O)c3c(c(O)c1C2=O)C[C@@](O)(C(=O)CO)C[C@@H]3O[C@H]1C[C@H](N)[C@H](O)[C@H](C)O1 classification="not fulfilled"
compound_string=NC[C@H]1O[C@H](O[C@H]2[C@H](O)[C@@H](O[C@H]3O[C@H](CO)[C@@H](O)[C@H](N)[C@H]3O)[C@H](N)C[C@@H]2N)[C@H](O)[C@@H](O)[C@@H]1O classification="not fulfilled"
compound_string=C[C@@H]1O[C@@H]1P(=O)(O)O classification="not fulfilled"
compound_string=CN[C@@H]1[C@H](O)[C@H](NC)[C@H]2O[C@@]3(O)C(=O)C[C@@H](C)O[C@H]3O[C@@H]2[C@H]1O classification="not fulfilled"
compound_string=COc1cccc2c1C(=O)c1c(O)c3c(c(O)c1C2=O)C[C@@](O)(C(C)=O)C[C@@H]3O[C@H]1C[C@H](N)[C@H](O)[C@H](C)O1 classification="not fulfilled"
compound_string=COc1cc(Cc2cnc(N)nc2N)cc(OC)c1OC classification=fulfilled
compound_string=CCn1cc(C(=O)O)c(=O)c2cc(F)c(N3CCNCC3)cc21 classification=fulfilled
compound_string=CN[C@H](CC(C)C)C(=O)N[C@H]1C(=O)N[C@@H](CC(N)=O)C(=O)N[C@H]2C(=O)N[C@H]3C(=O)N[C@H](C(=O)N[C@H](C(=O)O)c4cc(O)cc(O)c4-c4cc3ccc4O)[C@H](O)c3ccc(c(Cl)c3)Oc3cc2cc(c3O[C@@H]2O[C@H](CO)[C@@H](O)[C@H](O)[C@H]2O[C@H]2C[C@](C)(N)[C@H](O)[C@H](C)O2)Oc2ccc(cc2Cl)[C@H]1O classification="not fulfilled"
compound_string=NCCCNCCCCNCCCN classification="not fulfilled"
